Attribution: patent US11957680B2

- testSystem: wild type PKR (Homo sapiens, UniProt P30613)
- Sequence (P30613 whole entry): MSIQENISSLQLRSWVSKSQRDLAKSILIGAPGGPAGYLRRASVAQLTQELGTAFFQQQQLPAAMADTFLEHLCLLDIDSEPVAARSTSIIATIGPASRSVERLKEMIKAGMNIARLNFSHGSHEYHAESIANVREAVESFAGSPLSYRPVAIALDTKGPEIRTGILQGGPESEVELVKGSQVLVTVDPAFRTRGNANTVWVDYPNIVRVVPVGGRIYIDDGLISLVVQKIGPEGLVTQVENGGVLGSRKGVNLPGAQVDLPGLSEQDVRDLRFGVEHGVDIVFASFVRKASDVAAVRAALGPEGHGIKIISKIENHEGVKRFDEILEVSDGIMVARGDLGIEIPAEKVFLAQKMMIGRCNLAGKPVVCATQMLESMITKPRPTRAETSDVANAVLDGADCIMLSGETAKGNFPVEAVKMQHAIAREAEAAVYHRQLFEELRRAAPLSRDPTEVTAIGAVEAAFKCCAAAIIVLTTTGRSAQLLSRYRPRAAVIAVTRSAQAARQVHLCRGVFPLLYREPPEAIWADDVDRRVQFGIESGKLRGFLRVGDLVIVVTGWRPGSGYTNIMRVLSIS
- protocolDescription: Cell based ATP assay in purified red blood cells (Cell-Titer-Glo)
- Set-up: endogenous in cells; host or cells: purified red blood cells from healthy volunteers
- assayConditions: Table 2; RBCs, overnight at 37° C., ATP levels
measuredMetric: AC50

Examples with answers:
COc1cccc(Cn2ncc3c4sc(CO)nc4n(C)c3c2=O)c1    ≤ 1000 nM
Cn1c2nc(Cc3ccc(O)cc3)sc2c2cnn(Cc3cccc4[nH]ncc34)c(=O)c21    ≤ 1000 nM

Fill in the blank: the reported AC50 of `Cn1c2nc(Cc3cn[nH]c3)sc2c2cnn(Cc3cccc4[nH]ncc34)c(=O)c21` is ____.
≤ 1000 nM

What measured AC50 goes with `COc1cccc(Cn2ncc3c4sc(Cc5ccc(C(F)(F)F)cc5)nc4n(C)c3c2=O)c1` ?
≤ 1000 nM

Record request: AC50 value, item Cn1c2nc([S+](C)[O-])sc2c2cnn(Cc3cccc4c3CCNC4)c(=O)c21 (centres unmarked)
> 1000 nM

----------
- testSystem: PKR K410E (Homo sapiens, UniProt P30613, K410E)
- Sequence (P30613 whole entry K410E): as the sequence (P30613 whole entry) above, with K410E counted along it
- protocolDescription: PKR mutant assay (K410E), AC50, LDH/NADH-coupled, absorbance at 340 nm
- Format: biochemical
- assayConditions: Table 2; enzyme assay
Listed below: AC50 values for each entry.

Cn1c2nc(C#N)sc2c2cnn(Cc3cccc(N)n3)c(=O)c21    < 300 nM

Query (compound): `Cc1nc2c(s1)c1cnn(Cc3ccccc3F)c(=O)c1n2C` ; field requested: AC50
< 300 nM

Given the entry `COc1cccc(Cn2ncc3c4sc(C)nc4n(C)c3c2=O)c1` , report its measured AC50.
< 300 nM

// lookup AC50 for `Cn1c2nc(Cc3cnoc3)sc2c2cnn(Cc3cccc4[nH]ncc34)c(=O)c21`
301 to 800 nM

# AC50 lookup, item `COc1cccc(Cn2ncc3c4sc(C)nc4n(C)c3c2=O)n1`
301 to 800 nM

Name the reported AC50 value associated with the compound `Cn1c2nc(CO)sc2c2cnn(Cc3cccc4[nH]ncc34)c(=O)c21`
< 300 nM

----------
- testSystem: PKR K410E (Homo sapiens, UniProt P30613, K410E)
- protocolDescription: PKR mutant assay (K410E), AC50, LDH/NADH-coupled, absorbance at 340 nm
- Type: biochemical
- assayConditions: Table 2; enzyme assay
measuredMetric: AC50

Cn1c2nc(S(C)(=O)=O)sc2c2cnn(Cc3cccc4[nH]ncc34)c(=O)c21    301 to 800 nM
Cn1c2nc(Cc3cc[nH]n3)sc2c2cnn(Cc3ccc(C#N)cc3)c(=O)c21    < 300 nM
Cn1c2nc([S+](C)[O-])sc2c2cnn(Cc3cccc4[nH]ncc34)c(=O)c21 (stereo not shown)    301 to 800 nM

I have this molecule here, Cn1c2nc([S+](C)[O-])sc2c2cnn(Cc3ccc(C(N)=O)cc3)c(=O)c21 (stereo not shown) , and I need its recorded AC50.
> 800 nM

So what's the measured AC50 for this one? `CSc1nc2c(s1)c1cnn(Cc3ccnc(=O)[nH]3)c(=O)c1n2C`
> 800 nM

Form field: reported AC50 of `Cn1c2nc(Nc3ccccc3)sc2c2cnn(Cc3cccc4[nH]ncc34)c(=O)c21`
> 800 nM

Fill in: AC50 of `Cc1nc2c(s1)c1cnn(Cc3ccccc3O)c(=O)c1n2C` is ___
301 to 800 nM

Dear colleague, I am looking for the recorded AC50 of the following molecule: COc1cccc(Cn2ncc3c4sc(C(O)c5ccccc5)nc4n(C)c3c2=O)c1 (stereo not shown)
< 300 nM
